Recorded log10(Ki) values (UniProtKB P10275) are given below.
Sequence (P10275 whole entry): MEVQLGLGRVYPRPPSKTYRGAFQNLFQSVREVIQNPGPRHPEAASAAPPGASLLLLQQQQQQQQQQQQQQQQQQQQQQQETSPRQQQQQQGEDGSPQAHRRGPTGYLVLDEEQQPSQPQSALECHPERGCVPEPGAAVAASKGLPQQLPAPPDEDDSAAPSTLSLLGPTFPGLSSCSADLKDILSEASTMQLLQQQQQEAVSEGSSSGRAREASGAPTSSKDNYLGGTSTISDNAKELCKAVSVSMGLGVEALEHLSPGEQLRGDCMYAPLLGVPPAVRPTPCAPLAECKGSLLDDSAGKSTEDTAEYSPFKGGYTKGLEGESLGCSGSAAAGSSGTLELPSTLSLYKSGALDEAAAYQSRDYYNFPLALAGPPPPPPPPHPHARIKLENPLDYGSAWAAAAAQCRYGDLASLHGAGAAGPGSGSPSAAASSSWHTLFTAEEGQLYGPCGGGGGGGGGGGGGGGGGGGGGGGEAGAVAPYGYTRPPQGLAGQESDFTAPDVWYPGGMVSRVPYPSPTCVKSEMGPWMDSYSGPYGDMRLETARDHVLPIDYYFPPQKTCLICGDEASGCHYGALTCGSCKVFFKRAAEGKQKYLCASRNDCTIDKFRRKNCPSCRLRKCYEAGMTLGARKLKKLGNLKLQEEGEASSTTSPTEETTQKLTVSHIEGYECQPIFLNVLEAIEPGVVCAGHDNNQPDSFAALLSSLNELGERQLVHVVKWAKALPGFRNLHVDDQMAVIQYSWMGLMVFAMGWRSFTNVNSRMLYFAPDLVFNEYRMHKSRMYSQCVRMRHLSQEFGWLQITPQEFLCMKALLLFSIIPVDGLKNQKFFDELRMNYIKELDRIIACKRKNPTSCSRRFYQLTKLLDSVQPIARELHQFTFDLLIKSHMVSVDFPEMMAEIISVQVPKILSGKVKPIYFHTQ
Log scale reminder: Ki in µM, then log10 taken.

Before answering, review these 5 worked examples.
INSERT INTO measurements (molecule, endpoint, value_observed) VALUES
  ('CC1CC(C)(C)n2oc(=O)c3c4[nH]c(=O)cc(C(F)(F)F)c4cc1c32 (stereo not drawn) [Compound 113]', 'log10(Ki)', -2.00),
  ('CC1(C)CCc2cc3c(C(F)(F)F)c(F)c(=O)[nH]c3cc2N1 [Compound 105]', 'log10(Ki)', -1.68),
  ('CCC1CCN(C(=O)C(F)(F)F)c2cc3[nH]c(=O)cc(C(F)(F)F)c3cc21 (racemic) [Compound 122]', 'log10(Ki)', -2.15),
  ('CC1(C)CCc2cc3c(C(F)(F)F)cc(=O)[nH]c3cc2N1O [Compound 118]', 'log10(Ki)', -1.07),
  ('CC1CC(C)(C)Nc2cc3[nH]c(=O)c(F)c(C(F)(F)F)c3cc21 (stereo not drawn) [Compound 112]', 'log10(Ki)', -1.21);

Next:
Query: So what's the measured log10(Ki) for this one? CC1=CC(C)(C)Nc2cc3[nH]c(=O)c(F)c(C(F)(F)F)c3cc21 [Compound 111]
Reply: -1.92
